Every entry's value here was drawn from paper PMC6273627.

# experimentalSystem: cloned human 5-HT6-expressing cell line (HTS111RTA) (Homo sapiens, UniProt P50406)
# Sequence (P50406 whole entry): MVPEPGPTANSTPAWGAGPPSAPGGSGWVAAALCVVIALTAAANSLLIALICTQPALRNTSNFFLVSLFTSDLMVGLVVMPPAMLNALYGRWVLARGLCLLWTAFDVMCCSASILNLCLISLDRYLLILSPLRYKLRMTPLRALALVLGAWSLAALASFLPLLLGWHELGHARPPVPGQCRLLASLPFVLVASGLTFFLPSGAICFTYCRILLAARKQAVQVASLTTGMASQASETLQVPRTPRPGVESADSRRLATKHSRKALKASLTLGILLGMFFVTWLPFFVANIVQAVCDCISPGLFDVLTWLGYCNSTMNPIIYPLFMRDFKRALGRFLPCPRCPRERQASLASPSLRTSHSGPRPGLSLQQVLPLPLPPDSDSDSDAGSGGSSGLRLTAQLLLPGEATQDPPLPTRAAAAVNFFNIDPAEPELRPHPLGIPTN
# method: intracellular calcium mobilization assay (antagonism of 2-Me 5-HT)
measurementName: pEC50
pEC50 is a log-scale quantity: -log10 of the concentration expressed in molar.

-- ask So what pEC50 did Cc1[nH]c2ccc(O)cc2c1CCN [2-Me 5-HT, reference compound] get with cloned human 5-HT6-expressing cell line (HTS111RTA) (Homo sapiens, UniProt P50406)?
-- reply 6.92

###

# melting point listing for each entry below

These solved cases illustrate the format of a correct answer.
Cc1ccc(S(=O)(=O)n2cc(C(O)CN3CCN(c4ncccn4)CC3)c3ccccc32)cc1 (stereo not shown) :: 81 to 82 °C
COc1ccc(S(=O)(=O)n2cc(C(O)CN3CCOCC3)c3ccccc32)cc1 (stereo not shown) :: 149 to 152 °C
COc1ccccc1N1CCN(CC(O)c2cn(S(=O)(=O)c3ccc(I)cc3)c3ccccc23)CC1 (stereo not shown) :: 109 to 110 °C

-- ask Recorded melting point for "O=C(CN1CCN(c2ccccn2)CC1)c1cn(S(=O)(=O)c2ccc(I)cc2)c2ccccc12" , please?
-- reply 179 to 180 °C
